Target: UniProt:P10635
Sequence (P10635 whole entry): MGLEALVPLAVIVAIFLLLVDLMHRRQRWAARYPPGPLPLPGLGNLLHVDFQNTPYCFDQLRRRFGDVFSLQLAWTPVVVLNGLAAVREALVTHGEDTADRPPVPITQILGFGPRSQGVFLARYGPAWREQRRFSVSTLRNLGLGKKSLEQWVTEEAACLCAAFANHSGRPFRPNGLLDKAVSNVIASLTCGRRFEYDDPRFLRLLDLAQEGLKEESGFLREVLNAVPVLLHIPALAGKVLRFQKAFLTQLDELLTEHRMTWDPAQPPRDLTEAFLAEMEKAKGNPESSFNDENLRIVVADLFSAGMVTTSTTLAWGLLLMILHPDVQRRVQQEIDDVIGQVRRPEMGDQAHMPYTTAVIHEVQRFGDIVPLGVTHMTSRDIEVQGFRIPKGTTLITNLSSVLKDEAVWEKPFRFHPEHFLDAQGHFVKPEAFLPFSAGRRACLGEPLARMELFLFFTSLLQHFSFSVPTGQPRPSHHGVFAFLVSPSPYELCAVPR
measured_attribute: IC50

response.value for CCC(C)(C)c1ccc(OCC(O)CN2CCCC2)c(C(C)(C)CC)c1.Cl (stereo not shown) (field: IC50) = > 10 µM

====

// values below are reported melting point

molecule	result
Cl.OC(COc1ccc(Br)cc1)CN1CCCC1 (stereo not shown)	176.9 to 177.7 °C

Entry CCC(C)(C)c1ccc(OCC(O)CN2CCOCC2)c(C(C)(C)CC)c1.Cl (stereo not shown) — recorded melting point = 192.5 to 193.1 °C

# molecule CC(C)(C)c1ccc(OCC(O)CN2CCOCC2)cc1.Cl (stereo not shown) ; its melting point = 197.9 to 198.3 °C

Measured melting point, COc1ccc(OCC(O)CN2CCOCC2)cc1.Cl (stereo not shown) : 160.2 to 160.5 °C

Notebook: CC(C)(C)c1ccc(OCC(O)CN2CCCC2)cc1.Cl (stereo not shown) , melting point read as 139.9 to 140.4 °C

// field: melting point; key: CCC(C)(C)c1ccc(OCC(O)CN2CCCC2)c(C(C)(C)CC)c1.Cl (stereo not shown) ; value = 179.8 to 180.7 °C

Data origin, for the record: paper PMC9706920
